Sourced from the supplement of paper PMC10307832

System: NCI-H2405
Test: relative viability (nuclei count vs DMSO), 5 days (fraction); higher = more cells survive
Conditions: first compound 2.53 µM
Some compounds, each annotated with its measured relative viability.
Property Measured: relative viability

C=C1C(=O)O[C@@H](CCCCCCCC)[C@@H]1C(=O)O [C-75] + C[C@@H](Oc1cc(-c2cnn(C3CCNCC3)c2)cnc1N)c1c(Cl)ccc(F)c1Cl [Crizotinib] (partner 1 µM)	0.785
Oc1nc(-c2ccc(C(F)(F)F)cc2)nc2c1CSCC2 [XAV939] + CC(=O)Nc1cccc(-n2c(=O)n(C3CC3)c(=O)c3c(Nc4ccc(I)cc4F)n(C)c(=O)c(C)c32)c1 [Trametinib] (partner 0.02 µM)	0.412
Oc1nc(-c2ccc(C(F)(F)F)cc2)nc2c1CSCC2 [XAV939] + CC(C)C[C@H](NC(=O)[C@H](Cc1ccccc1)NC(=O)c1cnccn1)B(O)O [Bortezomib] (partner 0.002 µM)	0.959
Oc1nc(-c2ccc(C(F)(F)F)cc2)nc2c1CSCC2 [XAV939] + O=C(CCCCCCC(=O)Nc1ccccc1)NO [Vorinostat] (partner 1 µM)	0.925
Oc1nc(-c2ccc(C(F)(F)F)cc2)nc2c1CSCC2 [XAV939] + Cc1cc(Nc2cc(N3CCN(C)CC3)nc(Sc3ccc(NC(=O)C4CC4)cc3)n2)n[nH]1 [Tozasertib] (partner 0.1 µM)	0.66
C=C1C(=O)O[C@@H](CCCCCCCC)[C@@H]1C(=O)O [C-75] + C[C@]1(O)C[C@@H](c2nc(-c3ccc4ccc(-c5ccccc5)nc4c3)c3c(N)nccn32)C1 [Linsitinib] (partner 1 µM)	0.967
